Target: human GLP1R (hGLP1R) (Homo sapiens)
Sequence (P43220 24-463): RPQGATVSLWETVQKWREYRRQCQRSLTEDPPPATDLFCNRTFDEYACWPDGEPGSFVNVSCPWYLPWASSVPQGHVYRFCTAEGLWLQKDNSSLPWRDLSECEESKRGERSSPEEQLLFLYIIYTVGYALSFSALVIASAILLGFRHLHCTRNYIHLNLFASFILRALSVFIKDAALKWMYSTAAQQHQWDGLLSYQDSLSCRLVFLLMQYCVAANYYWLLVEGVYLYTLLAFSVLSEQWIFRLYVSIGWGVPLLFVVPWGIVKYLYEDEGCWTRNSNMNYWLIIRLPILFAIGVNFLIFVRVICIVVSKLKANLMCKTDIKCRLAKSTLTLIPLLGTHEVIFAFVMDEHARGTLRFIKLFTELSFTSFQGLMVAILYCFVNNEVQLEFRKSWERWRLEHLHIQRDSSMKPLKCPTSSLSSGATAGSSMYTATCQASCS
Assay: Human GLP1R cAMP agonist assay (GloSensor)
Assay type: cell-based
Conditions: HEK293-SNAP-hGLP1R-GloSensor cells; cAMP; normalized to GLP1(7-36) maximum response; read-out: Emax mean
experimental endpoint: Emax (%)
// note: answer is a bare numeric in %

Cc1nc(CN2CCC(c3cccc4c3O[C@@](C)(c3ccc(Cl)cc3F)O4)CC2)n(C[C@@H]2CCO2)c1CC(F)C(=O)O (stereo partly shown) : 109
Cc1nc(CN2CCC(c3cccc4c3O[C@@](C)(c3ccc(Cl)cc3F)O4)CC2)n(C[C@@H]2CCO2)c1CCC(=O)O : 107

Kindly consider the entry below.
Form entry - test system: human GLP1R (hGLP1R) (Homo sapiens); read-out: Emax; molecule: Cc1nc(CN2CCC(c3cccc4c3O[C@@](C)(c3ccc(Cl)cc3F)O4)CC2)n(C[C@@H]2CCO2)c1/C=C(/F)C(=O)O [Compound C-19a]
110
